test system: Mus musculus; assay: Tested for antiinflammatory activity on mouse type II collagen arthritis as Paw swelling* of all animals in each group on day 44 at intraperitoneal dose of 12 mg/kg; format: functional
Reported Paw swelling by item:
Response body: numeric value in mm, unit text excluded.

Examples from the recorded data:
[
  {
    "compound": "CCC(Cc1cnc2nc(N)nc(N)c2n1)c1ccc(C(=O)NC(CCC(=O)O)C(=O)O)cn1 (centres undefined)",
    "testTarget": "Mus musculus",
    "units": "mm",
    "Paw swelling": 2.86
  },
  {
    "compound": "Nc1nc(N)c2nc(CCc3ccc(C(=O)NC(CCC(=O)O)C(=O)O)s3)cnc2n1 (centres undefined)",
    "testTarget": "Mus musculus",
    "units": "mm",
    "Paw swelling": 2.58
  },
  {
    "compound": "Nc1nc(N)c2nc(CCc3ccc(C(=O)N[C@@H](CCC(=O)O)C(=O)O)cc3)cnc2n1",
    "testTarget": "Mus musculus",
    "units": "mm",
    "Paw swelling": 2.33
  }
]

Shifting focus to the compound that follows.
-- ask May I ask what Paw swelling has been recorded for CCC(Cc1cnc2nc(N)nc(N)c2n1)c1ccc(C(=O)N[C@@H](CCC(=O)O)C(=O)O)cc1 (some centres undefined) [EDATREXATE] ?
-- reply 2.32

Hey, just so you know, these numbers are from ChEMBL document CHEMBL1129929.
